Target: DNA dC->dU-editing enzyme APOBEC-3G (Homo sapiens) (UniProt Q9HC16)
Sequence (Q9HC16 whole entry, looked up): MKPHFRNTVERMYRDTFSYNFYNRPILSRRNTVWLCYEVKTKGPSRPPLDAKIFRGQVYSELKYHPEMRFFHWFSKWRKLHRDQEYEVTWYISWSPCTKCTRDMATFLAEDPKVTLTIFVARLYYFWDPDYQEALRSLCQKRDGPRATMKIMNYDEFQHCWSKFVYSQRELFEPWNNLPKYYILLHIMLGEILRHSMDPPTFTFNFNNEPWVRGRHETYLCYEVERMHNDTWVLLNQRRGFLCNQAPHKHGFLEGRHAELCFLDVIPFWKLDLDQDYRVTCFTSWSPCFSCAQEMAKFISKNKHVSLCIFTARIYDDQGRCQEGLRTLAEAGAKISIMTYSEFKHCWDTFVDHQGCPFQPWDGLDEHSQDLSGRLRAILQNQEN
Test: APOBEC3G DNA deaminase inhibitors, primary screen, biochemical, fluorescence, single-stranded DNA substrate, uHTS (AID 493012)
Conditions: recombinant A3G, ssDNA deamination FAM/TAMRA fluorescence; at 20 µM
Screen size: about 330,000 compounds; about 930 (0.28%) were called active.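 How the source made its calls: active means inhibition of at least 40% at 20 µM, with no more than 30% in the related APOBEC3A deaminase screen; inactive means the rest.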 The sample as a whole holds a higher share of actives than the screen did.
// one of TRUE = active, FALSE = inactive, no free text

The following compounds have reported results that may help.
Cc1sc(NC(=O)c2ccc3ncsc3c2)c(C(N)=O)c1C; FALSE
CCC(=O)N(C)C(c1ccccc1Cl)c1nnnn1-c1c(C)cccc1C (stereo not given); FALSE
O=C(NCC1CCCCC1)c1cc(S(=O)(=O)N2CCCCC2)ccc1N1CCOCC1; FALSE
Cc1ccc(C(=O)c2c(NC(=O)c3ccccc3)sc(C)c2C)cc1; TRUE

Please share the test call associated with O=C(Cn1cnc2cc([N+](=O)[O-])ccc2c1=O)NC(=O)NCc1ccccc1 .
FALSE

Queued: COc1ccc(C)cc1NC(=O)CCS(=O)(=O)c1cccc2nonc12
FALSE

Please give the result for Cc1nnc(SCC(=O)NNC(=O)c2ccc(Cl)cc2)n1CC1CCCO1 (stereo not given) too.
FALSE

Same thing, different compound: Cc1ccc(C)c(N2CCN(C(=O)CCc3nc(-c4cccc(C(F)(F)F)c4)no3)CC2)c1
FALSE

Repeat with COC(=O)COc1ccc(C2NC(=O)NC(C)=C2C(=O)NCc2ccccc2)cc1OC (stereo not given)
FALSE

Further, for CCOC(=O)C(Sc1ncc(C#N)c(N)n1)C(C)C (stereo not given) ?
FALSE

These entries and their values trace back to PubChem BioAssay AID493012.
